For each of the binders below, state its pKd.
# Target Or Test System: T1, FGFR2IIIb-his (ECD) (human)
# T1 chain: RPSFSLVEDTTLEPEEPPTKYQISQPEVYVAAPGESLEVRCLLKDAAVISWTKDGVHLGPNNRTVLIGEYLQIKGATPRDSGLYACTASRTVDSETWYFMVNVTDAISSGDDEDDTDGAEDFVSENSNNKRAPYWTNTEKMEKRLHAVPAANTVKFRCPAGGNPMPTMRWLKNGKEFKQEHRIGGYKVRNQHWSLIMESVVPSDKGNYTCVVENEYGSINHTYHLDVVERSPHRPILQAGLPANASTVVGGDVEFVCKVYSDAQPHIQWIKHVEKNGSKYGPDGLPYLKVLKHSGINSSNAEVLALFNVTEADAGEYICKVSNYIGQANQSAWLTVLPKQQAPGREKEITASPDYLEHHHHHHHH
# Method Summary: SPR
One number for each entry, as −log10 of the molar value.

Below: 3 binders and their reported pKd.
Reported pKd of III-0 (antibody, V domains shown) VH: QVQLQQPGAELVRPGASVKMSCKASGYTFANYNMHWVKQTPRQGLEWIGAIYPGNGDTSYNQKFKGKATLTADKSSSTAYMQLSSLTSEDSAVYYCARGDFGYWGQGTTLTVSS VL: DIVMTQSHKFMSTSVGDRVTITCKASQDVNIDVAWYQQKPGQSPKLLIYSASYRYTGVPDRFTGSGSGTDFTFTISSVQAEDLAVYYCQQHYSTPYTFGGGTKLEIK : 7.09

Quick note, pKd for III-15 (antibody, V domains shown) VH: QVQLVQSGAEVKKPGSSVKVSCKASGYTFAIYNMHWVRQAPGQGLEWIGAIYPDNGDTFYNQKFKGKATLTADKSTSTAYMELSSLRSEDTAVYYCARGDFGYWGQGTLVTVSS VL: DIVMTQSPSSLSASVGDRVTITCKASQDVNIDVAWYQQKPGKAPKLLIYLASYRYTGVPSRFSGSGSGTDFTFTISSLQPEDFATYYCQQTYSTPYTFGQGTKLEIK landed at 8.98

// recorded pKd for III-11 (antibody, V domains shown) VH: QVQLVQSGAEVKKPGSSVKVSCKASGYTFAIYNMHWVRQAPGQGLEWIGAIYPDNGDTFYNQKFKGKATLTADKSTSTAYMELSSLRSEDTAVYYCARGDFGYWGQGTLVTVSS VL: DIVMTQSPSSLSASVGDRVTITCKASQDVNIDPAWYQQKPGKAPKLLIYLASYRYTGVPSRFSGSGSGTDFTFTISSLQPEDFATYYCQQHYSTPYTFGQGTKLEIK : 8.91

# per-item lookup of pKd; items listed below
1. III-13 (antibody, V domains shown) VH: QVQLVQSGAEVKKPGSSVKVSCKASGYTFAIYNMHWVRQAPGQGLEWIGAIYPDNGDTSYNQKFKGKATLTADKSTSTAYMELSSLRSEDTAVYYCARGDFGYWGQGTLVTVSS VL: DIVMTQSPSSLSASVGDRVTITCKASQDVNIDVAWYQQKPGKAPKLLIYLASYRYTGVPSRFSGSGSGTDFTFTISSLQPEDFATYYCQQTYSTPYTFGQGTKLEIK
2. III-12 (antibody, V domains shown) VH: QVQLVQSGAEVKKPGSSVKVSCKASGYTFANYNMHWVRQAPGQGLEWIGAIYPDNGDTSYNQKFKGKATLTADKSTSTAYMELSSLRSEDTAVYYCARGDFGYWGQGTLVTVSS VL: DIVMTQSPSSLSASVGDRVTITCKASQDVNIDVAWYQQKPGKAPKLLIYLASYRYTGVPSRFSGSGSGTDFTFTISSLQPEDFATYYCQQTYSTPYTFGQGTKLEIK

1. 8.91
2. 8.88

Provide pKd values for the following items, in order.
1. III-14 (antibody, V domains shown) VH: QVQLVQSGAEVKKPGSSVKVSCKASGYTFAIYNMHWVRQAPGQGLEWIGAIYPGNGDTFYNQKFKGKATLTADKSTSTAYMELSSLRSEDTAVYYCARGDFGYWGQGTLVTVSS VL: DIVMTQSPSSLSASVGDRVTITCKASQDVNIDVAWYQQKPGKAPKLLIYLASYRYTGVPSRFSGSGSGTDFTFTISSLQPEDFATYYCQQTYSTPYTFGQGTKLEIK
2. III-10 (antibody, V domains shown) VH: QVQLVQSGAEVKKPGSSVKVSCKASGYTFANYNMHWVRQAPGQGLEWIGAIYPGNGDTSYNQKFKGKATLTADKSTSTAYMELSSLRSEDTAVYYCARGDFGYWGQGTLVTVSS VL: DIVMTQSPSSLSASVGDRVTITCKASQDVNIDVAWYQQKPGKAPKLLIYSASYRYTGVPSRFSGSGSGTDFTFTISSLQPEDFATYYCQQHYSTPYTFGQGTKLEIK

1: 8.90; 2: 7.17
